Measured effect in % (aphids killed) accompanies every entry in the list below.
System: Myzus persicae
Assay Info: Myzus test (MYZUPE spray treatment)
Assay type: in vivo
Conditions: 500 g/ha, after 6 days
# number only, unit % dropped from output

Molecule	Observation Type	Test Value
Cc1ccc(-c2ccc(Cl)cc2)c(C)c1C1=C(O)C2(CCC(F)(F)CC2)NC1=O	effect in % (aphids killed)	100

Reported effect in % (aphids killed) ( Cc1cc(Cl)cc(C)c1C1=C(O)C2(CC=C(F)CC2)NC1=O (centres unmarked) ) = 100

Reported effect in % (aphids killed) ( `Cc1ccc(-c2ccc(Cl)cc2)cc1C1=C(O)C2(CCC(F)(F)CC2)NC1=O` ) = 100

Reported effect in % (aphids killed) ( `Cc1cc(C)c(C2=C(O)C3(CCC(F)(F)CC3)OC2=O)c(C)c1` ) = 100

Reported effect in % (aphids killed) ( `Cc1cc(Br)cc(C)c1C1=C(O)C2(CCC(F)(F)CC2)NC1=O` ) = 100
